System: K562
ASSAY_DETAILS: NCI tumour cell line growth inhibition, 48 h
Activity calls are given as the source filed them. No stated cut-off is given here; in the data, active = GI50 up to about 1.1 µM and inactive = higher.
Your reply should match one of these outcome classes. t = active, f = inactive

Worked set:
| MOLECULE | CLASSIFICATION |
| --- | --- |
| Cc1cccc(C(C)O)n1 (stereo unspecified) | f |
| CC(C)(C)[Si](C)(C)Oc1ccc(C2CNC(=O)C23CCC(=O)N3Cc2ccccc2)cc1 (stereo unspecified) | f |
| Cn1c2ccccc2c(=NNc2ccc(S(=O)(=O)N=C(N)N)cc2)c2ccccc21 | f |
| CCCCCCCCCCCc1cc(=O)c2c(O)cccc2o1 | f |

[Q] Field: outcome | Entry: COc1ccc(C2=NN(C(C)=O)c3nc4ccccc4nc3O2)cc1
[A] f

[Q] Would you mind telling me which call this test gave CC(C)(C)OC(=O)N/N=C(/N)c1ccccc1 ?
[A] f

[Q] GET /call?item= CCSc1nc(N2CCCC2)s[s+]1.[O-][Cl+3]([O-])([O-])[O-] returns the recorded outcome of this test.
[A] t

[Q] I'd appreciate the recorded outcome for O=c1c(C(c2ccc(/C=C/c3ccccc3)cc2)c2c(O)oc3cc(O)ccc3c2=O)c(O)oc2cc(O)ccc12 from this test.
[A] f

[Q] Hey, what did the test say about O=C(Cn1nc(Br)c(Br)c1Br)c1ccccc1 ?
[A] f

[Q] What was the test verdict on N#Cc1c(-c2nc3ccccc3s2)c(=O)oc2cc(O)ccc12 ?
[A] f

[Q] Hi, sorry to bother you, what did the test record for CCOC(=O)CCC(NC(=O)c1ccc(Nc2nc3ccccc3n3cccc23)cc1)C(=O)OCC (stereo unspecified) ?
[A] f

* * *

Record form. Attribute: GI50. Fill in for each entry.
System: SN12C
ASSAY_DETAILS: NCI tumour cell line growth inhibition, 48 h
Active and inactive are the calls of the source. Cut-off read from the data, not from the text of the source: active = GI50 up to about 1.1 µM and inactive = higher.

Solved cases (4 shown):
| COMPOUND | VALUE_KIND | RESULT |
| --- | --- | --- |
| O[C@]12c3ccccc3C1CCCCC2N1CCOCC1 (stereo not given in full) | GI50 | > 100 µM (inactive) |
| Cc1cc(C)cc(Nc2nnc3n2S(=O)(=O)c2cc(C)c(Cl)cc2S3)c1 | GI50 | 5.61 µM (inactive) |
| COC(=O)C(CSSC[C@H](N/C(C)=C/C(C)=O)C(=O)OC)N/C(C)=C/C(C)=O (stereo not given in full) | GI50 | 48.8 µM (inactive) |
| CC(C)(C)N(Cc1ccc2c(c1)OCO2)C(=O)/C=C\Sc1ccccc1 | GI50 | > 100 µM (inactive) |

Give GI50 for each of the items listed below.
1. N#C/C(=C\c1cc(O)ccc1O)C(N)=O
2. CCOC1OC(CO[Si](C)(C)C(C)(C)C)C(O)CC1n1ccc(=O)[nH]c1=O (stereo not given)
3. O=C(O)[C@@]1(Cc2ccc(O)cc2)C[C@@H]2Cc3ccccc3N2N1
4. C(=C\N1CCCCC1)/c1nnnn1-c1ccccc1
5. COc1ccc(O)c2c1C(=O)CCCC2=O
6. COc1ccc(Oc2cccc(C3C4C(=O)N(c5ccc(C)c(Cl)c5)C(=O)C4ON3C(C(N)=O)c3ccccc3)c2)cc1 (stereo not given)

[A]
["50.4 µM (inactive)", "> 100 µM (inactive)", "> 100 µM (inactive)", "26.2 µM (inactive)", "> 100 µM (inactive)", "12.4 µM (inactive)"]
